All figures here come from paper PMC6638984.

# STUDY_SYSTEM: T1, BS69CC-MYND (BS69 amino acid 480–602, CC-MYND domain) (Homo sapiens, UniProt Q15326)
# T1 construct: The BS69 CC-MYND domain (amino acids 480–602) was amplified from pCI-BS69; GST (N, cleaved yes); 6xHis (N, cleaved yes); made in house; host or cells: E. coli Rosetta 2 (DE3) pLysS
# T1 sequence (Q15326 480-602): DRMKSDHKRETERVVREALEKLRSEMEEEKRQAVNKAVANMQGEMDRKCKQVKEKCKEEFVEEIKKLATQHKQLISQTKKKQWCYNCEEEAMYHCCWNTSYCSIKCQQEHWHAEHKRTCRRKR
# ASSAY_NAME: Isothermal titration calorimetry (ITC) of EBNA2 peptides and polypeptides binding to BS69CC-MYND
# CONDITION_SUMMARY: 29 injections, mean ± SD of 3 independent experiments
REPORTED_METRIC: -TΔS, event 2, two-site model (kcal/mol)
Give bare numbers, in kcal/mol.

Some entries whose results are on file:
EBNA2_348-422 SD + m3 mt: type 2 EBNA2 polypeptide 348–422 containing both the SD and motif 3 (ATAEA) mutations (protein, left off: His6, N-terminal, cleaved, type 2 EBNA2 polypeptide 348–422 containing both the SD and motif 3 (ATAEA) mutations) SMPQLSPVVSLHQGQGPENSPTPGPSTAGPVCRVTPSATPDISPIHEPESSDSEEPPFLFPDDWYPATAEAAELD | -1.95
T2 EBNA2_348-422: type 2 EBNA2 polypeptide containing motif 1, 2 and 3, amino acids 348–422 (protein, left off: His6, N-terminal, cleaved) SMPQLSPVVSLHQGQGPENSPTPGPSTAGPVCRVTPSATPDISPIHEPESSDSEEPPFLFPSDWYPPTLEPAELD | -8.04
EBNA2_348-422 SD + m3 T1: type 2 EBNA2 polypeptide 348–422 containing both the SD and motif 3 (PSIDP) mutations (protein, left off: His6, N-terminal, cleaved, type 2 EBNA2 polypeptide 348–422 containing both the SD and motif 3 (PSIDP) mutations) SMPQLSPVVSLHQGQGPENSPTPGPSTAGPVCRVTPSATPDISPIHEPESSDSEEPPFLFPDDWYPPSIDPAELD | -4.62

Let's switch to this molecule now.
Name the recorded -TΔS, event 2, two-site model for T2 EBNA2_348-422 SD: type 2 EBNA2 polypeptide 348–422 with an S409D mutation (protein, left off: His6, N-terminal, cleaved, type 2 EBNA2 polypeptide 348–422 with an S409D mutation) SMPQLSPVVSLHQGQGPENSPTPGPSTAGPVCRVTPSATPDISPIHEPESSDSEEPPFLFPDDWYPPTLEPAELD .
0.47
